Tested on: PSMA-expressing LNCaP cancer xenografts
experimental.parameters: mouse, in vivo
value.kind: Tumor: Salivary ratio

## Input Item under review: O=C(O)CN1CCN(CC(=O)O)CCN(CC(=O)NC[C@H]2CC[C@H](C(=O)N[C@@H](Cc3c4ccccc4cc4ccccc34)C(=O)NCCCC[C@H](NC(=O)N[C@@H](C[C@H](F)C(=O)O)C(=O)O)C(=O)O)CC2)CCN(CC(=O)O)CC1 [68Ga-HTK04040, metal not drawn] . Reported Tumor: Salivary ratio?
## Output 14.9 ± 4.40

## Input One more compound: O=C(O)CCC[C@H](NC(=O)N[C@@H](CCCCNC(=O)[C@H](Cc1cccc(I)c1)NC(=O)[C@H]1CC[C@H](CNC(=O)CN2CCN(CC(=O)O)CCN(CC(=O)O)CCN(CC(=O)O)CC2)CC1)C(=O)O)C(=O)O [68Ga-HTK04053, metal not drawn]
## Output 84.3 ± 32.1

## Input Also O=C(O)CCCCC(NC(=O)N[C@@H](CCCCNC(=O)[C@H](Cc1c2ccccc2cc2ccccc12)NC(=O)[C@H]1CC[C@H](CNC(=O)CN2CCN(CC(=O)O)CCN(CC(=O)O)CCN(CC(=O)O)CC2)CC1)C(=O)O)C(=O)O (single isomer, unassigned) [68Ga-HTK03189A, metal not drawn] , if possible.
## Output 10.5 ± 1.07

## Input Now give it for O=C(O)COC[C@H](NC(=O)N[C@@H](CCCCNC(=O)[C@H](Cc1c2ccccc2cc2ccccc12)NC(=O)[C@H]1CC[C@H](CNC(=O)CN2CCN(CC(=O)O)CCN(CC(=O)O)CCN(CC(=O)O)CC2)CC1)C(=O)O)C(=O)O [68Ga-HTK03187, metal not drawn] too.
## Output 133 ± 14.0

----------
For each entry below, report its tissue uptake at 4 h value.
experiment: in vivo
Design: species or system mice
experimental.parameters: male, NODSCID 1L2RγKO, mouse, iv, total radioactivity, Blood uptake
Answer in %ID/g, number only, no unit symbol.

## Input What does the record list as tissue uptake at 4 h for O=C(O)CCC[C@H](NC(=O)N[C@@H](CCCCNC(=O)[C@H](Cc1c2ccccc2cc2ccccc12)NC(=O)[C@H]1CC[C@H](CNC(=O)[C@H](CCCCNC(=O)CN2CCN(CC(=O)O)CCN(CC(=O)O)CCN(CC(=O)O)CC2)NC(=O)CNC(=O)CCCc2ccc(Cl)cc2)CC1)C(=O)O)C(=O)O [177Lu-HTK03153, metal not drawn] ?
## Output 18.8

## Input // same read-out, input: COc1ccc(CCCC(=O)NCC(=O)N[C@@H](CCCCNC(=O)CN2CCN(CC(=O)O)CCN(CC(=O)O)CCN(CC(=O)O)CC2)C(=O)NC[C@H]2CC[C@H](C(=O)N[C@@H](Cc3c4ccccc4cc4ccccc34)C(=O)NCCCC[C@H](NC(=O)N[C@@H](CCCC(=O)O)C(=O)O)C(=O)O)CC2)cc1 [177Lu-HTK03170, metal not drawn]
## Output 8.34

## Input Next entry: COc1ccc(CCCC(=O)NCC(=O)N[C@@H](CCCCNC(=O)CN2CCN(CC(=O)O)CCN(CC(=O)O)CCN(CC(=O)O)CC2)C(=O)NC[C@H]2CC[C@H](C(=O)N[C@@H](Cc3c4ccccc4cc4ccccc34)C(=O)NCCCC[C@H](NC(=O)N[C@@H](CSCC(=O)O)C(=O)O)C(=O)O)CC2)cc1 [177Lu-HTK04048, metal not drawn]
## Output 12.3

----------
experiment: in vivo
experimental.parameters: male, NODSCID 1L2RγKO, mouse, iv, total radioactivity, Thyroid uptake
Tick Criterion met if tissue uptake at 1 h is 0.2 %ID/g or greater. Tick Criterion not met if tissue uptake at 1 h is less than 0.2 %ID/g.

## Input Form field: tissue uptake at 1 h at least 0.2 %ID/g? Entry: O=C(O)CCC[C@H](NC(=O)N[C@@H](CCCCNC(=O)[C@H](Cc1c2ccccc2cc2ccccc12)NC(=O)Cc1ccc(CNC(=O)CN2CCN(CC(=O)O)CCN(CC(=O)O)CCN(CC(=O)O)CC2)cc1)C(=O)O)C(=O)O [68Ga-HTK04036, metal not drawn]
## Output Criterion met

## Input Record: O=C(O)COC[C@H](NC(=O)N[C@@H](CCCCNC(=O)[C@H](Cc1c2ccccc2cc2ccccc12)NC(=O)[C@H]1CC[C@H](CNC(=O)CN2CCN(CC(=O)O)CCN(CC(=O)O)CCN(CC(=O)O)CC2)CC1)C(=O)O)C(=O)O [68Ga-HTK03187, metal not drawn]
## Output Criterion not met

## Input // same read-out, input: O=C(O)CSC[C@H](NC(=O)N[C@@H](CCCCNC(=O)[C@H](Cc1c2ccccc2cc2ccccc12)NC(=O)[C@H]1CC[C@H](CNC(=O)CN2CCN(CC(=O)O)CCN(CC(=O)O)CCN(CC(=O)O)CC2)CC1)C(=O)O)C(=O)O [68Ga-HTK03177, metal not drawn]
## Output Criterion met

## Input Moving on to O=C(O)CCC[C@H](NC(=O)N[C@@H](CCCCNC(=O)[C@H](Cc1c2ccccc2cc2ccccc12)NC(=O)Cc1cccc(CNC(=O)CN2CCN(CC(=O)O)CCN(CC(=O)O)CCN(CC(=O)O)CC2)c1)C(=O)O)C(=O)O [68Ga-HTK04037, metal not drawn]
## Output Criterion not met

## Input Then this compound: O=C(O)CCC[C@H](NC(=O)N[C@@H](CCCCNC(=O)[C@H](Cc1c2ccccc2cc2ccccc12)NC(=O)[C@H]1CC[C@H](CNC(=O)CN2CCN(CC(=O)O)CCN(CC(=O)O)CCN(CC(=O)O)CC2)CC1)C(=O)O)C(=O)O [68Ga-HTK03149, metal not drawn]
## Output Criterion met

## Input Also, O=C(O)CCC[C@H](NC(=O)N[C@@H](CCCCNC(=O)[C@H](Cc1ccc2ccccc2c1)NC(=O)[C@H]1CC[C@H](CNC(=O)CN2CCN(CC(=O)O)CCN(CC(=O)O)CCN(CC(=O)O)CC2)CC1)C(=O)O)C(=O)O [68Ga-HTK03169, metal not drawn] please.
## Output Criterion not met

## Input Now consider O=C(O)CC[C@H](NC(=O)N[C@@H](CCCCNC(=O)[C@H](Cc1c2ccccc2cc2ccccc12)NC(=O)[C@H]1CC[C@H](CNC(=O)CN2CCN(CC(=O)O)CCN(CC(=O)O)CCN(CC(=O)O)CC2)CC1)C(=O)O)C(=O)O [68Ga-HTK03041, metal not drawn] .
## Output Criterion met

## Input Proceed to O=C(O)CN1CCN(CC(=O)O)CCN(CC(=O)NC[C@H]2CC[C@H](C(=O)N[C@@H](Cc3c4ccccc4cc4ccccc34)C(=O)NCCCC[C@H](NC(=O)N[C@@H](C[C@H](F)C(=O)O)C(=O)O)C(=O)O)CC2)CCN(CC(=O)O)CC1 [68Ga-HTK04040, metal not drawn]
## Output Criterion met

## Input Record: O=C(O)CN1CCN(CC(=O)O)CCN(CC(=O)NC[C@H]2CC[C@H](C(=O)N[C@@H](Cc3c4ccccc4cc4ccccc34)C(=O)NCCCC[C@H](NC(=O)N[C@@H](C[C@@H](F)C(=O)O)C(=O)O)C(=O)O)CC2)CCN(CC(=O)O)CC1 [68Ga-HTK04033, metal not drawn]
## Output Criterion not met

----------
Give measured tissue uptake at 72 h for each item. Keep answers brief.
experiment: in vivo
Set-up: species or system mice
experimental.parameters: male, NODSCID 1L2RγKO, mouse, iv, total radioactivity, Salivary uptake
Hey, just the number and the unit after it is fine.

## Input Request the reported tissue uptake at 72 h associated with COc1ccc(CCCC(=O)NCC(=O)N[C@@H](CCCCNC(=O)CN2CCN(CC(=O)O)CCN(CC(=O)O)CCN(CC(=O)O)CC2)C(=O)NC[C@H]2CC[C@H](C(=O)N[C@@H](Cc3c4ccccc4cc4ccccc34)C(=O)NCCCC[C@H](NC(=O)N[C@@H](CCCC(=O)O)C(=O)O)C(=O)O)CC2)cc1 [177Lu-HTK03170, metal not drawn]
## Output 0.11 %ID/g

## Input Also COc1ccc(CCCC(=O)NCC(=O)N[C@@H](CCCCNC(=O)CN2CCN(CC(=O)O)CCN(CC(=O)O)CCN(CC(=O)O)CC2)C(=O)NC[C@H]2CC[C@H](C(=O)N[C@@H](Cc3c4ccccc4cc4ccccc34)C(=O)NCCCC[C@H](NC(=O)N[C@@H](COCC(=O)O)C(=O)O)C(=O)O)CC2)cc1 [177Lu-HTK04028, metal not drawn] ?
## Output 0.19 %ID/g

## Input And COc1ccc(CCCC(=O)NCC(=O)N[C@@H](CCCCNC(=O)CN2CCN(CC(=O)O)CCN(CC(=O)O)CCN(CC(=O)O)CC2)C(=O)NC[C@H]2CC[C@H](C(=O)N[C@@H](Cc3c4ccccc4cc4ccccc34)C(=O)NCCCC[C@H](NC(=O)N[C@@H](CSCC(=O)O)C(=O)O)C(=O)O)CC2)cc1 [177Lu-HTK04048, metal not drawn] ?
## Output 0.2 %ID/g

## Input Request: O=C(O)CCC[C@H](NC(=O)N[C@@H](CCCCNC(=O)[C@H](Cc1c2ccccc2cc2ccccc12)NC(=O)[C@H]1CC[C@H](CNC(=O)CN2CCN(CC(=O)O)CCN(CC(=O)O)CCN(CC(=O)O)CC2)CC1)C(=O)O)C(=O)O [177Lu-HTK03149, metal not drawn]
## Output 0.05 %ID/g

## Input Check O=C(O)CCC[C@H](NC(=O)N[C@@H](CCCCNC(=O)[C@H](Cc1c2ccccc2cc2ccccc12)NC(=O)[C@H]1CC[C@H](CNC(=O)[C@H](CCCCNC(=O)CN2CCN(CC(=O)O)CCN(CC(=O)O)CCN(CC(=O)O)CC2)NC(=O)CNC(=O)CCCc2ccc(Cl)cc2)CC1)C(=O)O)C(=O)O [177Lu-HTK03153, metal not drawn] too.
## Output 0.68 %ID/g
